Test system: MOLT-4
Experiment: Cytotoxicity against human MOLT4 cells by SRB assay
Assay type: functional
// GI50 lookup, one value per entry

>  <query smiles>
Cc1ccc(Cl)cc1NC(=O)c1sc2nc3c(cc2c1N)C(=O)CCC3

>  <measured on>
MOLT-4

>  <scale unit>
nM

>  <GI50>
3500

$$$$
>  <query smiles>
Nc1c(C(=O)Nc2ccccc2)sc2nc3c(cc12)C(=O)CCC3

>  <measured on>
MOLT-4

>  <scale unit>
nM

>  <GI50>
520

$$$$
>  <query smiles>
Nc1c(C(=O)Nc2ccccc2F)sc2nc3c(cc12)C(=O)CCC3

>  <measured on>
MOLT-4

>  <scale unit>
nM

>  <GI50>
1800

$$$$
>  <query smiles>
Cc1cc(C)c(NC(=O)c2sc3nc4c(cc3c2N)C(=O)CCC4)c(C)c1

>  <measured on>
MOLT-4

>  <scale unit>
nM

>  <GI50>
3600

$$$$
>  <query smiles>
Cc1ccccc1NC(=O)c1sc2nc3c(cc2c1N)C(=O)CCC3

>  <measured on>
MOLT-4

>  <scale unit>
nM

>  <GI50>
4300

$$$$
>  <query smiles>
Nc1c(C(=O)Nc2cccc(Cl)c2)sc2nc3c(cc12)C(=O)CCC3

>  <measured on>
MOLT-4

>  <scale unit>
nM

>  <GI50>
200

$$$$
